Assay: PSAC antagonists in infected red cells, primary screen, cell-based, P. falciparum Indochina, OD700, 18 h (AID 1157)
Settings: P. falciparum Indochina infected erythrocytes, osmotic lysis OD700, 18 h; higher = more signal, called active from +8 up or from −8 down
Active and inactive are the calls of the source.
value-kind: z-score

# count of solved cases: 6
COCCOC(=O)N1C(=O)[C@@]2(c3ccccc31)[C@H](C(=O)NC[C@H](O)c1ccccc1)[C@H]1C(=O)O[C@H](c3ccccc3)[C@H](c3ccccc3)N1[C@@H]2c1ccc(OCCO)cc1; 0.999 (inactive)
CC(C)c1ccc(NN2C(C(O)c3c(F)cccc3Cl)C=CC3C(=O)N(c4ccccc4)C(=O)C32)cc1 (centres undefined); 1.02 (inactive)
O=C(CCN1CCOCC1)c1cccc(O)c1; -1.68 (inactive)
NC(=O)NCC#Cc1ccc2c(c1)[C@]1(C(=O)N2)[C@H](C(=O)NC[C@H](O)c2ccccc2)[C@H]2C(=O)O[C@H](c3ccccc3)[C@H](c3ccccc3)N2[C@@H]1c1ccc(O)cc1; -0.048 (inactive)
CC(C)OC(=O)CC(=O)CC(O)c1ccc(C#N)cc1 (centres undefined); -1.79 (inactive)
COc1cc(C(O)C2C=CC3C(=O)N(c4ccccc4)C(=O)C3N2Nc2ccc(C#N)cc2)cc(OC)c1OC (centres undefined); 1.76 (inactive)

molecule [N-]=[N+]=Nc1ccccc1C[C@]1(C(=O)NCCN2CCOCC2)N=C(c2ccc(OCCCO)cc2)O[C@H]1c1ccccc1 , z-score observed: 0.766 (inactive)

Value of z-score reported for the molecule N#Cc1ccc(NN2C(C(O)c3ccc([N+](=O)[O-])cc3)C=CC3C(=O)N(c4ccccc4)C(=O)C32)cc1 (centres undefined) is 1.49 (inactive)

z-score for C=C(COC)/C(=C/C[C@H](OC(=O)c1ccncc1)c1cccc(OCCO)c1)c1cc(C(=O)OC)ccc1OC is 0.773 (inactive)
